# ASSAY DETAILS: NCI Yeast Anticancer Drug Screen. Data for the sgs1 mgt1 strain (AID 161);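 further: 0% = growth of cultures given vehicle only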
# PROTOCOL CONDITIONS: S. cerevisiae sgs1 mgt1 strain, at 50.0 µM, hits give high values
The panel holds about 79,000 compounds, 15% with a hit somewhere; the sample as a whole holds those more often.
MEASUREMENT LABEL: growth inhibition (%)

>  <COMPOUND>
COc1ccc([Se]c2ccc(OC)cc2)cc1

>  <UNIT OF MEASURE>
%

>  <RECORDED NUMBER>
-7.15

$$$$
>  <COMPOUND>
CCOC(=O)C(CC(C)C)NC(=O)C(N)Cc1ccc(N(CCCl)CCCl)cc1 (stereo not given)

>  <UNIT OF MEASURE>
%

>  <RECORDED NUMBER>
-27.1

$$$$
>  <COMPOUND>
CC([NH-])C(C)[NH-].CC([NH-])C(C)[NH-].CC([NH-])C(C)[NH-].[Cr+6] (stereo not given)

>  <UNIT OF MEASURE>
%

>  <RECORDED NUMBER>
10.7

$$$$
>  <COMPOUND>
CCCCN(CCCC)CC(O)c1ccc(Cl)c(Cl)c1 (stereo not given)

>  <UNIT OF MEASURE>
%

>  <RECORDED NUMBER>
28.9

$$$$
>  <COMPOUND>
COC1/C=C/C=C(/C)Cc2cc(O)c(Cl)c(c2)N(C)C(=O)CC(OC(=O)C(C)C)C2(C)OC2C(C)C2CC1(O)NC(=O)O2 (stereo not given)

>  <UNIT OF MEASURE>
%

>  <RECORDED NUMBER>
-15.8

$$$$

====

# ASSAY DETAILS: NCI Yeast Anticancer Drug Screen. Data for the cln2 rad14 strain (AID 165);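 further: 0% = growth equal to vehicle treated cultures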
# PROTOCOL CONDITIONS: S. cerevisiae cln2 rad14 strain, at 50.0 µM
The panel holds about 79,000 compounds, 15% with a hit somewhere; the sample as a whole holds those more often. Calls of active or inactive are those of the source. Cut-off read from the data, not from the text of the source: active = growth inhibition above about 70%; inactive = the rest.
Classes used: active, inactive

>  <COMPOUND>
C[CH2][Sn]([O][Sn]([Cl])([CH2]C)[c]1ccccc1)[c]1ccccc1 (configuration not stated)

>  <CLASS LABEL>
active

$$$$
>  <COMPOUND>
COC(=O)C1c2c(C)cc3n2C(C=CC3)C1C(=O)OC (configuration not stated)

>  <CLASS LABEL>
inactive

$$$$
>  <COMPOUND>
CC(=O)OC1CC2(O)C(CCC3(C)C(c4ccc(=O)oc4)CCC32O)C2(C)C1=CC(O)C1OC12 (configuration not stated)

>  <CLASS LABEL>
inactive

$$$$
>  <COMPOUND>
CC(=O)O[C@H]1CCC2[C@@H]3CC[C@]4(C)CC(=O)C=C[C@]4(C)C3CC[C@@]21C (some centres not stated)

>  <CLASS LABEL>
active

$$$$
>  <COMPOUND>
CCCCCN1C(=O)C2C(C1=O)C1(Cl)C(Cl)=C(Cl)C2(Cl)C1(Cl)Cl (configuration not stated)

>  <CLASS LABEL>
active

$$$$
>  <COMPOUND>
O=C1C2CCC(C2)[CH]1[Hg][Cl] (configuration not stated)

>  <CLASS LABEL>
active

$$$$
>  <COMPOUND>
CCOC(=O)C(CCc1ccc(N(CCCl)CCCl)cc1)(NC(C)=O)C(=O)OCC

>  <CLASS LABEL>
inactive

$$$$
>  <COMPOUND>
O=C(CCl)NC1CCCCC1

>  <CLASS LABEL>
inactive

$$$$
>  <COMPOUND>
O=C(O)CC1OCC=C2CN3CCC45c6ccccc6NC4C1C2CC35 (configuration not stated)

>  <CLASS LABEL>
inactive

$$$$
>  <COMPOUND>
CCCCCCCNC(=O)CBr

>  <CLASS LABEL>
inactive

$$$$
>  <COMPOUND>
Cc1cc2n[se]nc2cc1C

>  <CLASS LABEL>
inactive

$$$$
>  <COMPOUND>
NC(=O)c1ccc(NN=O)nc1

>  <CLASS LABEL>
inactive

$$$$

All figures here come from PubChem BioAssay (NCI).
